target: Prostaglandin E synthase (Homo sapiens, UniProt O14684); assay: Inhibition of full-length microsomal PGES-1 (unknown origin) expressed in Escherichia coli Rosetta(DE3) using PGH2 as substrate assessed as inhibition of PGH2 conversion to PGE2 incubated 15 mins prior to substrate addition measured after 1 min by EIA
Measurement kind: IC50 (µM)

See these solved cases before continuing.
Cc1cc(C)c2oc(-c3ccc(C)c(NC(=O)c4cccc([N+](=O)[O-])c4)c3)nc2c1; 0.0046
CC(C)(C)C(=O)CSc1nnc(-c2ccccc2)c(-c2ccccc2)n1; 17.8
Cc1ccc([N+](=O)[O-])cc1NC(=O)CSc1nnc(CC(=O)Nc2ccccc2)n1C; 0.1

I: COc1cc(-c2cc(C(=O)O)c3c(ccc4ccccc43)n2)ccc1OCCCC#N
II: C=CCn1c(CNc2c(C)cccc2C)nnc1SCC(=O)Nc1ccccc1C
III: Cc1ccc(-c2nnc(SCC(=O)c3ccc(CC(N)=O)s3)nc2-c2ccc(C)cc2)cc1
IV: O=C(CSc1ncc(-c2ccccc2)nn1)c1ccccc1
# desc sort on IC50 across 4 compounds List the labels in the requested order. IV, II, III, I
(IV: 32.5 µM, II: 12.6 µM, III: 0.64 µM, I: 0.0011 µM)

====

Target: UniProtKB O14684
Sequence (O14684 whole entry): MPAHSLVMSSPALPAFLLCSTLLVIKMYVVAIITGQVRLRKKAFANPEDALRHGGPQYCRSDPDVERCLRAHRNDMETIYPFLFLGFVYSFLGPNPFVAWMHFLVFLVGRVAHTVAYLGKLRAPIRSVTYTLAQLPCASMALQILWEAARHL
Test: Inhibition of full-length microsomal PGES-1 (unknown origin) expressed in Escherichia coli Rosetta(DE3) using PGH2 as substrate assessed as inhibition of PGH2 conversion to PGE2 incubated 15 mins prior to substrate addition measured after 1 min by EIA
Measurement kind: IC50 (nM)

O=C(CSc1nnc(-c2ccccc2)c(-c2ccccc2)n1)c1c[nH]c2ccccc12; 500
O=C(CSc1nnc(-c2ccccc2)c(-c2ccccc2)n1)c1ccccc1; 2500

I: CCOC(=O)C1=C(C)N=c2s/c(=C\c3ccc(-c4ccc(Cl)c(C(=O)O)c4)o3)c(=O)n2C1c1ccccc1Cl (centres undefined)
II: Cc1ccc([N+](=O)[O-])cc1NC(=O)CSc1nnc(CNc2ccc(Cl)cc2)n1C
III: C=CCSc1nnc2c(n1)OC(c1ccc(-c3cccc([N+](=O)[O-])c3)o1)Nc1ccccc1-2 (centres undefined)
# desc sort on IC50 across 3 compounds List the labels in the requested order. III, II, I

====

molecular target: Prostaglandin E synthase (Homo sapiens); assay: Inhibition of full-length microsomal PGES-1 (unknown origin) expressed in Escherichia coli Rosetta(DE3) using PGH2 as substrate assessed as inhibition of PGH2 conversion to PGE2 incubated 15 mins prior to substrate addition measured after 1 min by EIA
pIC50: −log10 of the molar value.
Measurement kind: pIC50

Cc1ccc(C)c(NC(=O)CSc2nnc(CNc3c(C)cccc3C)n2-c2ccccc2)c1; 4.87
Cc1ccc(Cl)c(NC(=O)CSc2nnc(CNc3c(C)cccc3C)n2C)c1; 6.70

1: Cc1cccc(C)c1NCc1nnc(SCC(=O)Nc2ccc(F)cc2)n1-c1ccccc1
2: CC(c1ccccc1)N1C(=O)c2ccc(C(=O)Nc3cc(Cl)ccc3C(=O)O)cc2C1=O (centres undefined)
3: O=C(CCCSc1nnc(-c2ccccc2)c(-c2ccccc2)n1)c1ccccc1
# desc sort on pIC50 across 3 compounds List the labels in the requested order. 2, 1, 3
(2: 8.70, 1: 5.04, 3: 4.29)

I: CCn1c(CNc2ccc(C)cc2C)nnc1SCC(=O)c1ccc(C)cc1
II: O=C(CSc1nnc(-c2ccccc2)c(-c2ccccc2)n1)C12CC3CC(CC(C3)C1)C2
Between the entries labelled I and II , which has a larger pIC50 value on record? Please identify the chosen entry by its label. I

A: O=C(CSc1nnc(-c2ccccc2)c(-c2ccccc2)n1)c1cccs1
B: Cc1ccc([N+](=O)[O-])cc1NC(=O)CSc1nnc(CSCc2ccccc2)n1C
C: CCCCCCCCCSc1nnc(-c2ccc(OC)cc2)c(-c2ccc(OC)cc2)n1
D: O=C(COC(=O)c1ccc2c(c1)C(=O)N(c1ccc(Oc3ccccc3)cc1)C2=O)c1ccc(Br)cc1
E: C/C(=N\NC(=O)c1ccc([N+](=O)[O-])c(C)c1)c1cccc(NC(=O)COc2ccc(Cl)cc2Cl)c1
# desc sort on pIC50 across 5 compounds List the labels in the requested order. E, B, D, A, C
(E: 7.24, B: 6.62, D: 5.77, A: 5.02, C: 4.48)

I: CC1=NN(c2ccc(Cl)c(Cl)c2)C(=O)/C1=C/c1cc(Br)ccc1OCC(=O)O
II: O=C(CSc1nc(-c2ccccc2)c(-c2ccccc2)[nH]1)c1ccccc1
Between the entries labelled I and II , which has a larger pIC50 value on record? Please identify the chosen entry by its label. I
(I: 6.77, II: 4.98)
